- Tested on: RS4;11 cells
- experimentalDetails: RS4;11 cell viability assay (CellTiter Glo);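 also: acute lymphoblastic leukemia line RS4,11, EC50 derived from percentage of viable cells after treatment relative to untreated controls, cell killing taken as a measure of Bcl-2 inhibition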
- Assay type: cell-based, human
- reportedConditions: Homo sapiens, RS4-11, 48 h, 50,000 cells per well, 10% human serum, 48 hours; read-out: RS4; 11 EC50 Values
propertyMeasured: EC50 (nM)

Below, each entry is followed by its recorded EC50 result.
CC1(C)CCC(CN2CCN(c3ccc(C(=O)NS(=O)(=O)c4ccc(NN5CCN(C6COC6)CC5)c([N+](=O)[O-])c4)c(Oc4cnc5[nH]ccc5c4)c3)CC2)=C(c2ccc(Cl)cc2)C1 [Example 236] :: 42.9
CC1(C)CCCC(c2ccc(Cl)cc2)=C1CN1CCN(c2ccc(C(=O)NS(=O)(=O)c3ccc(NCC4CCOCC4)c([N+](=O)[O-])c3)c(Oc3cnc4[nH]ccc4c3)c2)CC1 [Example 101] :: 299
CC1(C)CCC(CN2CCN(c3ccc(C(=O)NS(=O)(=O)c4ccc(NC5CN(C6CCOC6)C5)c([N+](=O)[O-])c4)c(Oc4cnc5[nH]ccc5c4)c3)CC2)=C(c2ccc(Cl)cc2)C1 (centres unmarked) [Example 117] :: 18.2

a: COC(=O)N1CCOC(CNc2ccc(S(=O)(=O)NC(=O)c3ccc(N4CCN(CC5=C(c6ccc(Cl)cc6)CC(C)(C)CC5)CC4)cc3Oc3cnc4[nH]ccc4c3)cc2[N+](=O)[O-])C1 (centres unmarked) [Example 317]
b: CO[C@H]1CC[C@H](COc2ncc(S(=O)(=O)NC(=O)c3ccc(N4CCN(CC5=C(c6ccc(Cl)cc6)CC(C)(C)CC5)CC4)cc3Oc3cnc4[nH]ccc4c3)cc2C(F)(F)F)CC1 [Example 300]
IN: Select the item with the higher value of EC50 from the options a and b listed. Your choice should be expressed through its label.
OUT: b
(b: 763 nM, a: 13.3 nM)
